- Tested on: A549/ATCC NSCLC
- test-details: NCI-60 one-dose screen, 48 h (100 = growth as untreated, 0 = no growth, -100 = all killed)
- condition-parameters: 10 µM unless noted
The panel holds about 83,000 compounds, 20% with a hit somewhere; the sample as a whole holds those more often.
measure: growth (%)
Your answer should be a plain number; it is taken to be in %.

Clc1ccccc1-c1cnn2cc(-c3ccccc3)cnc12	70.5
COc1ccc(-c2n[nH]c(=O)c3nc(NC(=S)Nc4ccc(Oc5ccccc5)cc4)sc23)cc1	86.7
CCOc1cccc(/C=N/NC(=O)c2cccc(Nc3ccnc(C(F)(F)F)c3)c2)c1O	38

// growth value for O=C1/C=C/[C@@H](O)[C@@H]2C[C@@H](O)C[C@H]2/C=C/CCC[C@H](CCO)O1 : 17.7

// growth value for Cc1ccc(-c2nc(/C=C3/C(=O)Nc4ccc(F)cc43)c3ccccn23)cc1 : 81.8

// growth value for Fc1ccc(Cn2cc(CSc3nc4ccccc4o3)nn2)cc1 : 103

###

- System: RXF 393 renal
- test-details: NCI-60 one-dose screen, 48 h (100 = growth as untreated, 0 = no growth, -100 = all killed)
- condition-parameters: 10 µM unless noted
The panel holds about 83,000 compounds, 20% with a hit somewhere; the sample as a whole holds those more often.
measure: growth (%)
Your answer should be a plain number; it is taken to be in %.

CCCC(CC)(C(=O)Nc1ccc2nc(C)cc(N)c2c1)C(=O)Nc1ccc2nc(C)cc(N)c2c1	117

// growth value for NC1=Nc2cc(OCCCCN3Cc4ccccc4C3)c(OCC3CC3)cc2C12CCCC2 : 30.2

// growth value for Cc1cccc(N2CCC(=O)NC2=S)c1 : 115

// growth value for Ic1ccccc1I : 100

// growth value for CCN1CCN(CC(=O)Nc2ccc(-c3cn4c(n3)sc3cc(Oc5ccnc(C(=O)NC)c5)ccc34)cc2)CC1 : 69.2

// growth value for CCCCCCCCCCCCCOC(=O)c1c(C)[nH]c(/C=C2\N=C(c3ccc[nH]3)C=C2OC)c1C : 27.7

###

- Tested on: SW-620 colon
- test-details: NCI-60 one-dose screen, 48 h (100 = growth as untreated, 0 = no growth, -100 = all killed)
- condition-parameters: 10 µM unless noted
This is part of a sample that, as a whole, favours compounds with a hit. Of some 83,000 tested, about 20% had one in any assay.
Think of 50% as a floor: if growth stands on it or above, it is True; beneath it, False.

Reference set, count: 4
c1ccc(CCNc2c3ccccc3nc3ccccc23)cc1	False
Cc1ccc(-c2csc(NC(=O)c3ccccc3CN3C(=O)c4ccccc4C3=O)n2)cc1	True
CCCn1nc(C(=O)N(C)Cc2ccccc2)c2c1CCC(N1CCc3ccccc31)C2 (centres undefined)	True
CC/C=C\CCC/C=C1/C(=O)C=C[C@@H]1C/C=C\CCCC(=O)OC	False

State whether the measured growth reaches 50%, counting equality as reaching it, for CN(Cc1cc(Br)cc(Br)c1O)Cc1cc(Br)cc(Br)c1O False

State whether the measured growth reaches 50%, counting equality as reaching it, for N#Cc1cncc(-c2ccc3ncnc(Nc4cccc(Cl)c4)c3c2)c1 True

State whether the measured growth reaches 50%, counting equality as reaching it, for COc1ccc(/C=C/c2c(C(=O)/C=C/c3ccccc3)c(C)nc3ccccc23)cc1 False

State whether the measured growth reaches 50%, counting equality as reaching it, for C=Cc1cnc(Nc2ccc(OC)cc2)nc1NCCCNC(=O)C1CCC1 False

State whether the measured growth reaches 50%, counting equality as reaching it, for CCN1C(=O)N(CC)C2C1NN=c1s/c(=C3\C(=O)N(CCC(C)C)c4ccccc43)c(=O)n12 (centres undefined) False

State whether the measured growth reaches 50%, counting equality as reaching it, for CC1(C)N=C(N)N=C(N)N1c1cccc(CCc2ccccc2)c1 False

State whether the measured growth reaches 50%, counting equality as reaching it, for CNC(=O)c1ccccc1Nc1nc(Nc2cc(OC)c(OC)c(OC)c2)ncc1Br False

State whether the measured growth reaches 50%, counting equality as reaching it, for O=C1/C(=C/c2ccc(F)cc2)CN(C(=O)C(Cl)Cl)C/C1=C\c1ccc(F)cc1 False

State whether the measured growth reaches 50%, counting equality as reaching it, for O=c1c2ccccc2c(=O)c2c1sc1c(=O)c3ccc(O)cc3c(=O)c12 False

###

- Tested on: BT-549 breast
- test-details: NCI-60 one-dose screen, 48 h
- condition-parameters: 10 µM unless noted
This is part of a sample that, as a whole, favours compounds with a hit. Of some 83,000 tested, about 20% had one in any assay. The source made the active and inactive calls. How the source made its calls: active means growth percent below 10; inactive means the rest.
Returns: one label drawn from active, inactive

Reference set, count: 10
CN1CCN(c2ccc(NC(=O)c3cncnc3Nc3ccc(OCc4cccc(F)c4)c(Cl)c3)cc2)CC1	inactive
CCc1n(Cc2ccc3ccccc3n2)cc[n+]1Cc1ccc2ccccc2n1	inactive
CC[C@]12C=CCN3CC[C@@]4(c5ccc(OC)cc5N(C)[C@H]4[C@@](O)(C(=O)OC)[C@@H]1OC(=O)CCC[P+](c1ccccc1)(c1ccccc1)c1ccccc1)[C@@H]32	inactive
Fc1cc(Nc2ccc3c(OCCCN4CCOCC4)cccc3n2)ccc1Cl	inactive
C=C(C)[C@@H]1CCC[C@]2(C(=O)N3CCN(C)CC3)CC[C@]3(C)[C@@H](CC[C@@H]4[C@@]5(C)CC/C(=N\NC(=O)c6ccncc6)C(C)(C)[C@@H]5CC[C@]43C)[C@@H]12	inactive
CCN1C2CCC1/C(=C\c1ccc(F)cc1)C(=O)/C2=C/c1ccc(F)cc1	inactive
O=C(NC1CC(F)C1)c1cc2cccnc2n1-c1ccc(Cl)c(Cl)c1 (stereo not drawn)	inactive
CCCCCCCCCCCCCCCCCCOc1ccccc1CC(=O)NCC[N+]1(C)CCCCC1	inactive
CN1CCN(CCOc2ccc(-c3cnc4c(-c5ccc(F)cc5)cnn4c3)cc2)CC1	inactive
O=C(CSc1nnc(-c2cc(-c3ccccc3)nc3ccccc23)n1-c1ccccc1)Nc1ccc(C(=O)/C=C/c2ccc(Cl)cc2)cc1	inactive

Tell me the recorded outcome of this test for COC(=O)c1ccc(NC(=O)Nc2ccc(C(=O)OC)cc2)cc1 . inactive

Tell me the recorded outcome of this test for Cc1ccc(-c2nc(-c3cn(C)c4ncccc34)cs2)cc1 . active

Tell me the recorded outcome of this test for CN(C)c1ccc(-c2ccc3c(c2)c(-c2ccccc2)nc(=O)n3C)cn1 . inactive

Tell me the recorded outcome of this test for CC1(C)CC2=C3C=C[C@@H]4[C@@]5(C)CCC(=O)C(C)(C)[C@@H]5CC[C@@]4(C)[C@]3(C)CC[C@@]2(C(=O)O)C[C@H]1O . inactive

###

- System: SR leukemia
- test-details: NCI-60 one-dose screen, 48 h
- condition-parameters: 10 µM unless noted
About 83,000 compounds went through this panel and 20% of them were active in at least one assay; those are over-represented in the sample as a whole. Active and inactive are the calls of the source. Rule for the calls: active = growth percent below 10; inactive = the rest.
Returns: one label drawn from yes (active), no (inactive)

C=C(C)[C@@H]1CCC[C@]2(C(=O)N3CCN(C)CC3)CC[C@]3(C)[C@@H](CC[C@@H]4[C@@]5(C)CC/C(=N\NC(=O)c6ccncc6)C(C)(C)[C@@H]5CC[C@]43C)[C@@H]12	yes
O=[N+]([O-])c1cc(NS(=O)(=O)c2ccccc2)ccc1NS(=O)(=O)c1ccccc1	no
O=C(CN1CCN(c2cc3c(cc2F)c(=O)c(C(=O)O)cn3C2CC2)CC1)N/N=C/c1ccco1	no

Now turn to the next compound.
Tell me the recorded outcome of this test for CCN1C(=O)N(CC)C2Nn3c(s/c(=C\c4ccccc4Br)c3=O)=NC21 (centres undefined) . no

###

- Test system: MDA-MB-435 melanoma
- test-details: NCI-60 one-dose screen, 48 h (100 = growth as untreated, 0 = no growth, -100 = all killed)
- condition-parameters: 10 µM unless noted
This is part of a sample that, as a whole, favours compounds with a hit. Of some 83,000 tested, about 20% had one in any assay. The source made the active and inactive calls. How the source made its calls: active means growth percent below 10; inactive means the rest.
measure: growth

Some compounds with recorded growth:
Fc1cccc(-c2ccc3c(c2)C2(CCNCC2)CN3)c1	108% (inactive)
C=C(c1ccc(OC)c(/C=C/C(=O)c2ccc3c(c2)OCO3)c1)c1cc(OC)c(OC)c(OC)c1	23.2% (inactive)
CNC(=O)c1cc(Oc2cccc3nc(NC(=O)Nc4cc(C(F)(F)F)ccc4Cl)ccc23)ccn1	74.1% (inactive)
Cn1cc(-c2csc(-c3c[nH]c4ccc(F)cc34)n2)c2ccnc(Cl)c21	88.2% (inactive)

// growth value for O=C(/C=C/c1ccccc1)c1ccc(Nc2nc(Nc3ccc(F)cc3)nc(Nc3ccc(Cl)cc3)n2)cc1 : 95.7% (inactive)

// growth value for O=C(Nc1ccccc1O)c1ccc(CNC(=O)c2ccsc2Nc2ccnc(C(F)(F)F)c2)cc1 : 14.9% (inactive)
